Reference for the values: patent US20230105029A1

Molecular target: T1, marmoset monkey IL4Rα-his protein (marmoset monkey)
T1 construct: Custom made by Sino biological; no cleavage site stated; also called cal-IL4Rα-his; Cal-IL4Rα
T1 chain: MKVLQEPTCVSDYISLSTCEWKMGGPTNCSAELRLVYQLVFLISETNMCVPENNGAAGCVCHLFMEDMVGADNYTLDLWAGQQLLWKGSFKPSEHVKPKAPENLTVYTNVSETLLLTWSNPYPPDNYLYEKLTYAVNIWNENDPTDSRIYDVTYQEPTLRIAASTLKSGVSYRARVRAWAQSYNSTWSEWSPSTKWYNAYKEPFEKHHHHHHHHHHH
Assay: indirect ELISA, coated cal-IL4Rα-his
Collected pEC50 values appear next to each entry.
# pEC50 = -log10(concentration in molar units)

Indicate the recorded pEC50 value for this binder: huB8G11F2B7G5E8-V2 (antibody, human IgG4 S228P, kappa, V domains shown, Humanized, human IgG4/kappa; also called huBSG11F2B7G5E8-V2) VH: EVQLVQSGAEVKKPGATVKISCKVSGFNIKDTYMHWVKQAPGKGLEWVGRIDPTNGYTIYASKFQGKATITADTSSNTAYMELSSLRSEDTAVYHCVSRRPWFAYWGQGTLVTVSS VL: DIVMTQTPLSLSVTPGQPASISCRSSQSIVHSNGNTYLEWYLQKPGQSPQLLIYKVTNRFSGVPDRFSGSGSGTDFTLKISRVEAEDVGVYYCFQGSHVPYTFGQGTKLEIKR 9.10

Indicate the recorded pEC50 value for this binder: huB8G11F2B7G5E8-V14 (antibody, human IgG4 S228P, kappa, V domains shown, Humanized, human IgG4/kappa; also called huBSG11F2B7G5E8-V14) VH: EVQLVQSGAEVKKPGATVKISCKVSGFNIKDTYMHWVKQAPGKGLEWMGRIDPTNGYTIYASKFQGKATITADTSSNTAYMELSSLRSEDTAVYHCVSRRPWFAYWGQGTLVTVSS VL: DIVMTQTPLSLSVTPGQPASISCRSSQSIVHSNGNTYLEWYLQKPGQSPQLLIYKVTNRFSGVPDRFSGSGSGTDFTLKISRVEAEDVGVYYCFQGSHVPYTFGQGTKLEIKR 8.97

Indicate the recorded pEC50 value for this binder: huB8G11F2B7G5E8-V4 (antibody, human IgG4 S228P, kappa, V domains shown, Humanized, human IgG4/kappa; also called huBSG11F2B7G5E8-V4) VH: EVQLVQSGAEVKKPGATVKISCKASGFNIKDTYMHWVKQAPGKGLEWMGRIDPTNGYTIYASKFQGKATITADTSSNTAYMELSSLRSEDTAVYHCVSRRPWFAYWGQGTLVTVSS VL: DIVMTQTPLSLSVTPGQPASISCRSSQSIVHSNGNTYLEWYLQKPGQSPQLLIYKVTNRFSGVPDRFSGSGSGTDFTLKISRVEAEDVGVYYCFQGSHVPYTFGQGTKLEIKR 9.14
